# key: entry, value: Lysis diameter
Test system: Klebsiella aerogenes
test-description: Mean lysis diameter of wild type Enterobacter aerogenes EA289 with OmpF by standard disk diffusion method on MH agar
Assay type: functional
quantity-name: Lysis diameter (mm)

| molecule | subject-of-test | value-reported |
| --- | --- | --- |
| CC1(C)S[C@@H]2[C@H](NC(=O)[C@H](N)c3ccccc3)C(=O)N2[C@H]1C(=O)O | Klebsiella aerogenes | 6 |
| CO/N=C(\C(=O)N[C@@H]1C(=O)N2C(C(=O)[O-])=C(C[N+]3(C)CCCC3)CS[C@H]12)c1csc(N)n1 [CEFEPIME] | Klebsiella aerogenes | 27 |
| CO[C@@]1(NC(=O)Cc2cccs2)C(=O)N2C(C(=O)O)=C(COC(N)=O)CS[C@@H]21 | Klebsiella aerogenes | 7 |
| CC(C)(O/N=C(\C(=O)N[C@@H]1C(=O)N2C(C(=O)[O-])=C(C[n+]3ccccc3)CS[C@H]12)c1csc(N)n1)C(=O)O | Klebsiella aerogenes | 11 |
| CO/N=C(\C(=O)N[C@@H]1C(=O)N2C(C(=O)O)=C(COC(C)=O)CS[C@H]12)c1csc(N)n1 | Klebsiella aerogenes | 17 |
| CO/N=C(\C(=O)N[C@@H]1C(=O)N2C(C(=O)[O-])=C(C[n+]3cccc4c3CCC4)CS[C@H]12)c1csc(N)n1 | Klebsiella aerogenes | 26 |
